The measured values listed here are drawn from PubChem BioAssay.

measurement_target: Fibroblast growth factor 10 (Homo sapiens) (UniProt O15520)
Sequence (O15520 whole entry, looked up): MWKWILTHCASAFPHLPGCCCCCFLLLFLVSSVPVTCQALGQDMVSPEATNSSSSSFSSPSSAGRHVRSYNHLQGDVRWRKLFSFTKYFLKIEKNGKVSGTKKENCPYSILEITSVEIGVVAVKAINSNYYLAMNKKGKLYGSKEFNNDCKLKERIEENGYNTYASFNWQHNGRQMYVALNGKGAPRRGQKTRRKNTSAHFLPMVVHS
procedure_details: FGF10 binders on small-molecule microarrays, primary screen, biochemical, small-molecule microarray, 635 nm fluorescence (AID 1102)
test_context: FGF10 binding, fluorescence 635 nm, higher = more signal
readout_name: composite z-score
Give only the figure.

Tell me composite z-score reported for CC(CCN1CCCCc2nc(C)c(C)cc21)=NOC(C)CN1CCCc2nc(C)c(C)cc21 (stereo not drawn)
1.35

Respond only with composite z-score recorded for C#CCCCON=C1C[C@@H](O)[C@@H](O)[C@@H]2[C@@H]3C(=O)N([C@@H](C)c4ccccc4)C(=O)[C@@H]3CC[C@H]12
0.478

# return recorded composite z-score for input C[C@H]1Cc2c(-c3ccccc3)nc3c(c2CO1)CN(CCOc1ccccc1)CC3
1.19

For the compound CCN(CC)c1ccc(N2CC=CC34O[C@@H]5/C=C\CCC(C)OC(=O)C5[C@H]3C(=O)N(CCCO)[C@@H]4C2=O)cc1 (stereo partly drawn) , give its measured composite z-score value.
-0.221

# return recorded composite z-score for entry CCOC(=O)[C@H](Cc1ccccc1)NC(=O)CCC1CC(OC(=O)NCCc2ccc(F)cc2)CC2(CCCC(COC(=O)NCC(c3ccccc3)c3ccccc3)O2)O1 (stereo partly drawn)
0.617

Quickly give me recorded composite z-score for COc1ccccc1CN1C(=O)c2ccccc2[C@@H](C(=O)NCC(F)(F)F)[C@@H]1c1ccc(CO)cc1
0.956

Answer with the recorded composite z-score of CC(CCN1CCc2nc(-c3ccccc3)c(-c3ccccc3)cc2C1)=NOC[C@@H](C)[C@H](OCc1ccccc1)C(C)C only.
-1.3

For the compound CC(=O)O[C@H]1C2=C(C(=O)[C@@H]3O[C@@H]31)[C@H]1C(C)O[C@@H]2[C@@]23C(=O)[C@@H]4O[C@@H]4[C@@H](O)C2=CO[C@H](C)[C@@H]13 (stereo partly drawn) , give its reported composite z-score.
0.374

Name the recorded composite z-score of the item O=C1[C@H]2[C@H]3[C@H](O)[C@H](O)CC(=NOCc4ccccc4)[C@@H]3CC[C@H]2C(=O)N1Cc1ccccc1 in your answer.
0.43

Write down composite z-score measured for item N#Cc1ccc(NN2C(C(O)c3cccc4ccccc34)C=CC3C(=O)N(c4ccccc4)C(=O)C32)cc1 (stereo not drawn)
0.899

Complete the entry with composite z-score for COCCCNC(=O)[C@@]1(CCS(=O)(=O)c2ccccc2)N=C(c2ccc(OCCCO)cc2)O[C@H]1c1ccccc1
1.12

Identify composite z-score associated with the compound CC(C)=C1C(=O)C(c2ccccc2)=C2CN3C(=O)N(CCc4ccccc4)C(=O)[C@]3(Cc3ccc(F)cc3)[C@H]21
-0.625

Return value of composite z-score for input CO[C@H]1O[C@H](CO)[C@@H](OC(=O)Nc2ccc(C#N)cc2)[C@H](OC(=O)c2cc3ccccc3[nH]2)[C@H]1OC(=O)c1cc2ccccc2[nH]1 , no commentary.
0.747

Return the recorded composite z-score value; entry: CCOC(=O)CCN1C(=O)[C@H]2[C@H]3[C@H](O)[C@H](O)CC(=NOCc4ccccc4)[C@@H]3CC[C@H]2C1=O
0.526

Quote composite z-score reported for O=C1[C@H]2[C@H]3[C@H](O)[C@H](O)CC(=NO[C@@H]4O[C@H](CO)[C@@H](O)[C@H](O)[C@H]4O)[C@@H]3CC[C@H]2C(=O)N1c1ccc(F)cc1F please.
0.794

Retrieve composite z-score measured for CC(C)(C)OC(=O)CC[C@]1(C(N)=O)COC(c2ccc(OCCCO)cc2)=N1 and print it.
1.34

Kindly indicate its recorded composite z-score. Item: O=C1[C@H]2[C@H]3[C@H](O)[C@H](O)CC(=NO[C@@H]4O[C@H](CO)[C@@H](O)[C@H](O)[C@H]4O)[C@H]3CC[C@H]2C(=O)N1Cc1ccccc1
0.437

Assign composite z-score to the following record: COCCOC(=O)N1C(=O)[C@@]2(c3cc(C#CC4(O)CCCCCC4)ccc31)[C@H](C(=O)N1CCN(c3ncccn3)CC1)[C@H]1C(=O)O[C@H](c3ccccc3)[C@H](c3ccccc3)N1[C@@H]2c1ccc(OCCO)cc1
1.18

Specify reported composite z-score for the compound shown: O=C(CS)NCCCCCNC(=O)[C@@H]1C[C@@H]2C(=O)N[C@@H](Cc3ccccc3)C(=O)N2[C@@H]1c1ccc(O)cc1
1.02

Fill in composite z-score for record CN(C)c1ccc(C(O)C2C=CC3C(=O)N(c4ccccc4)C(=O)C3N2Nc2ccccc2F)cc1 (stereo not drawn)
-0.235

Tell me its composite z-score given CCCC[C@@H](O)C1=C(C)C[C@H]2C(=O)N(Cc3ccccc3)C(=O)[C@H]2[C@H]1CO as the entry.
0.264

Item O=C1C[C@]2(c3ccc([N+](=O)[O-])cc3)C(=O)N(CCN3CCOCC3)c3cc(CO)ccc3[C@H]2N1CC12CC3CC(CC(C3)C1)C2 : provide composite z-score
-0.629

Note composite z-score for the compound shown: COC(=O)C1=C(C)N(Cc2ccccc2)[C@]23O[C@](C(=O)OC)(C(=O)N2[C@@H]1c1ccccc1)[C@H]1CCOC(=O)[C@H]13
1.1

Give the measured composite z-score for CO[C@@H]1COC(=O)CC=C[C@@H](C)[C@H](OC)COC(=O)[C@H](COCc2ccccc2)NC(=O)CC=C[C@H]1C
0.303

Give the measured composite z-score for CO[C@H]1COC(=O)[C@H](C)COC(=O)CC=C[C@@H](C)[C@H](OC)COC(=O)CC=C[C@@H]1C
0.207

Determine its reported composite z-score: CCN1C(=O)[C@H]2[C@H]3[C@H](O)[C@H](O)CC(=NOCC=C(C)CCC=C(C)C)[C@H]3CC[C@H]2C1=O
1.13

Fill in composite z-score for record CC(C)[C@@H](OCc1ccccc1)[C@H](C)C=NO[C@H](C)c1cn([C@H](CO)Cc2ccccc2)nn1
0.503

Tell me its composite z-score given CCOC(=O)NN=C1C[C@@H](O)[C@@H](O)[C@@H]2[C@@H]3C(=O)N(CC)C(=O)[C@@H]3CC[C@@H]12 as the entry.
0.664
